A collection of sequences and their measured apparent KD of MS2 coat protein
System: MS2 coat protein
Assay: apparent KD of MS2 coat protein; higher = weaker reporter binding
Conditions: Eterna round: R107; input ligand: arginine 13.2 mM
metric: apparent KD of MS2 coat protein (nM)

- residue.sequence: "ACAUGAGGAUCACCCAUGUAAGGUCUUGAUACCAGACGAGAAGUAGUCCCUUGGCAGCAAAUACGUGAGGGUCACACAUGUGUAA [edsmullin]"
  metric: "apparent KD of MS2 coat protein"
  readout.value: 21.6
- residue.sequence: "GAGUUGUGCUCAGGCCCGACUCGCUGAGAAGGAGCGCACUAAGGUGCAGGUAGGUCGCUCAGGAAUACAUGAGGAUCACCCAUGU [Erlaatti]"
  metric: "apparent KD of MS2 coat protein"
  readout.value: 21.7
- residue.sequence: "GUUGCACAUGAGGAUCACCCAUGUUUGGAUACCAGUCUCUGUAAUGACCCUUGGCAGCCACCAUAGACGCUUGAGUAGAGCCUGA [theeternabot_sameState_MS2_Theo_A_21]"
  metric: "apparent KD of MS2 coat protein"
  readout.value: 14.2
- residue.sequence: "UUAGUAACGACGGCCGCCACUGAUUUUGGACAUGAGGAUCACCCAUGUAAAGAUCCUAGAAUGGUCAGGACCGGGUCUGAUAAUG [Exclusion Tryptophane B GF4]"
  metric: "apparent KD of MS2 coat protein"
  readout.value: 35
- residue.sequence: "GCAUCCUAGUCGGCCGCCACUGCGAAUAGGUCCUGAGUGAUCUAACAUGAGGAUCACCCAUGUAGCAGGACCGGGACUAGGAUGC [(Trp1)-(TM)''-(TM)'-(Ms2)-(Trp2)_Design5]"
  metric: "apparent KD of MS2 coat protein"
  readout.value: 12.8
- residue.sequence: "ACUAGAGGUGGAAGGAGCGGGAGACAUGAGGAUCACAUGAGGAUCACCCAUGUAGGAUCAUCCCAGGUAGGUCGCCAUGUCGAAA [,mmlmullin]"
  metric: "apparent KD of MS2 coat protein"
  readout.value: 46
